Recorded Ki for the following compounds
# experimental target: Substance-K receptor (Homo sapiens, UniProt P21452)
# Sequence (P21452 whole entry): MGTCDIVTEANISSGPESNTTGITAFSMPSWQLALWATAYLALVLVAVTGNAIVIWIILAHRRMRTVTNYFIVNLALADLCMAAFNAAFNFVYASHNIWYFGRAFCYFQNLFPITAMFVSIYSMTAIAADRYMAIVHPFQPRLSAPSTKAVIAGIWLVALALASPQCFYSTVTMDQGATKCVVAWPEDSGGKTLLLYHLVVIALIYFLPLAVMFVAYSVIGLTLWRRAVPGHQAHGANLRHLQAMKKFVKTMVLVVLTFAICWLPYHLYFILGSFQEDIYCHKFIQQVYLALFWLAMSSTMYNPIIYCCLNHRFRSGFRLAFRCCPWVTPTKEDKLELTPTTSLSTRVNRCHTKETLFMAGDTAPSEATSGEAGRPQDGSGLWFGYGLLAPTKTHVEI
# test summary: Binding affinity against recombinant human tachykinin receptor 2 in CHO cells using [3H]NKA as a radioligand
# output: number + unit

Completed entries (count: 3):
# get_value(readout='Ki', item= CN(C/C(=N\OCCCS(C)(=O)=O)C(CCN1CCC(N2CCCCC2=O)CC1)c1ccc(Cl)c(Cl)c1)C(=O)c1cc(Cl)cc(Cl)c1 (centres undefined) )
3.2 nM

For CN(C/C(=N\OCc1c[nH]cn1)C(CCN1CCC(N2CCCCC2=O)CC1)c1ccc(Cl)c(Cl)c1)C(=O)c1cc(Cl)cc(Cl)c1 (centres undefined) then?
8.5 nM

For COCO/N=C(\COCc1cc(C(F)(F)F)cc(C(F)(F)F)c1)C(CCN1CCC(O)(c2ccccc2)CC1)c1ccc(Cl)c(Cl)c1 (centres undefined) then?
42 nM

// below: Ki requested for another compound
# get_value(readout='Ki', item= CNC(=O)NCCCO/N=C(\CN(C)C(=O)c1cc(Cl)cc(Cl)c1)C(CCN1CCC(N2CCCCC2=O)CC1)c1ccc(Cl)c(Cl)c1 (centres undefined) )
1.7 nM

* * *

Recorded Ki for the following compounds
# experimental target: UniProt:P25103
# Sequence (P25103 whole entry): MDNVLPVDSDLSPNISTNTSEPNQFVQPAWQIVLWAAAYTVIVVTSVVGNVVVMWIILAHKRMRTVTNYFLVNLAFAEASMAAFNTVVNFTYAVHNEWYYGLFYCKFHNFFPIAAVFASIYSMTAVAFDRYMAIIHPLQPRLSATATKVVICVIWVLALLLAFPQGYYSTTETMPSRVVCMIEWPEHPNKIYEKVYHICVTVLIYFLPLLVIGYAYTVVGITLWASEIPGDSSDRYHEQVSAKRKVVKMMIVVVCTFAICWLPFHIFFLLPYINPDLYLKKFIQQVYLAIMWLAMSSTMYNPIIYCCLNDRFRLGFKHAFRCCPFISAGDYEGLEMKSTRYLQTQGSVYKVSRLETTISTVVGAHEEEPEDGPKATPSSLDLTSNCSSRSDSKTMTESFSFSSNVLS
# test summary: Binding affinity against recombinant human tachykinin receptor 1 in CHO cells using [3H]-Sar SP as a radioligand
Use nM as the unit, but write only the number.

Completed entries (count: 4):
# get_value(readout='Ki', item= CN(C/C(=N\OCC(=O)O)C(CCN1CCC(N2CCCCC2=O)CC1)c1ccc(Cl)c(Cl)c1)C(=O)c1cc(Cl)cc(Cl)c1 (configuration not stated) )
0.7

For CN(C/C(=N\OCCCN)C(CCN1CCC(N2CCCCC2=O)CC1)c1ccc(Cl)c(Cl)c1)C(=O)c1cc(Cl)cc(Cl)c1 (configuration not stated) then?
0.7

For CSCCCO/N=C(\CN(C)C(=O)c1cc(Cl)cc(Cl)c1)C(CCN1CCC(N2CCCCC2=O)CC1)c1ccc(Cl)c(Cl)c1 (configuration not stated) then?
7.4

For CO/C=C(\COCc1cc(C(F)(F)F)cc(C(F)(F)F)c1)C(CCN1CCC(O)(c2ccccc2)CC1)c1ccc(Cl)c(Cl)c1 (configuration not stated) then?
33

***
# get_value(readout='Ki', item= CN(C/C(=N\OCCCn1cccn1)C(CCN1CCC(N2CCCCC2=O)CC1)c1ccc(Cl)c(Cl)c1)C(=O)c1cc(Cl)cc(Cl)c1 (configuration not stated) )
1.7

For COCO/N=C(\COCc1cc(C(F)(F)F)cc(C(F)(F)F)c1)C(CCN1CCC(O)(c2ccccc2)CC1)c1ccc(Cl)c(Cl)c1 (configuration not stated) then?
49

For COC(=O)CO/N=C(\COCc1cc(C(F)(F)F)cc(C(F)(F)F)c1)C(CCN1CCC(O)(c2ccccc2)CC1)c1ccc(Cl)c(Cl)c1 (configuration not stated) then?
25

* * *

Recorded Ki for the following compounds
# experimental target: UniProt:P21452
# test summary: Binding affinity against recombinant human tachykinin receptor 2 in CHO cells using [3H]NKA as a radioligand

Completed entries (count: 6):
# get_value(readout='Ki', item= CN(C/C(=N\OCC(=O)NO)C(CCN1CCC(N2CCCCC2=O)CC1)c1ccc(Cl)c(Cl)c1)C(=O)c1cc(Cl)cc(Cl)c1 (configuration not stated) )
4.2 nM

For O=C(COCc1cc(C(F)(F)F)cc(C(F)(F)F)c1)C(CCN1CCC(O)(c2ccccc2)CC1)c1ccc(Cl)c(Cl)c1 (configuration not stated) then?
236 nM

For OCCO/N=C(\COCc1cc(C(F)(F)F)cc(C(F)(F)F)c1)C(CCN1CCC(O)(c2ccccc2)CC1)c1ccc(Cl)c(Cl)c1 (configuration not stated) then?
14 nM

For CN(C/C(=N\OCC#N)C(CCN1CCC(N2CCCCC2=O)CC1)c1ccc(Cl)c(Cl)c1)C(=O)c1cc(Cl)cc(Cl)c1 (configuration not stated) then?
1.4 nM

For CN(C/C(=N\OCF)C(CCN1CCC(N2CCCCC2=O)CC1)c1ccc(Cl)c(Cl)c1)C(=O)c1cc(Cl)cc(Cl)c1 (configuration not stated) then?
0.8 nM

For CONC(COCc1cc(C(F)(F)F)cc(C(F)(F)F)c1)C(CCN1CCC(O)(c2ccccc2)CC1)c1ccc(Cl)c(Cl)c1 (configuration not stated) then?
350 nM

***
# get_value(readout='Ki', item= CN(C/C(=N\OC(F)F)C(CCN1CCC(N2CCCCC2=O)CC1)c1ccc(Cl)c(Cl)c1)C(=O)c1cc(Cl)cc(Cl)c1 (configuration not stated) )
5 nM

Data provenance is ChEMBL document CHEMBL1135235.
